Source of measurements: the kinase profiling compilation of Christmann-Franck et al. (2016)

- target under test: CDK19 (human) (UniProt Q9BWU1)
- Sequence (Q9BWU1 whole entry, looked up): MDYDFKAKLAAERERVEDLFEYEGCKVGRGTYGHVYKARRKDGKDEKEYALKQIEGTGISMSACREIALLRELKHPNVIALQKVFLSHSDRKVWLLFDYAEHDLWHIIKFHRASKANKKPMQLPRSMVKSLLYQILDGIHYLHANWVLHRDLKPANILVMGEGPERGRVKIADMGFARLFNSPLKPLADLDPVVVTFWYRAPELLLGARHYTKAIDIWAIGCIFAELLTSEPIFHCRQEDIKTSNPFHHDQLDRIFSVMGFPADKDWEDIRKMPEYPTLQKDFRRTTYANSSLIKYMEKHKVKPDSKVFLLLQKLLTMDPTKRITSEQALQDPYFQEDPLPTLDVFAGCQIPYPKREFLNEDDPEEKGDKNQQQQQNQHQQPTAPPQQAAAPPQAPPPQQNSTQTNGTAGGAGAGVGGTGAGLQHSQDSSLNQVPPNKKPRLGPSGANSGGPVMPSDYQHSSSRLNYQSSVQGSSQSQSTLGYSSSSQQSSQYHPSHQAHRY
- assay: KINOMEscan competition binding
- test parameters: compound 10.0 µM

smiles data | reading unit | kinase still bound, per cent of control
COc1cc2c(Nc3ccc(NC(=O)c4ccccc4)cc3)ncnc2cc1OCCCN1CCOCC1 | % | 100
CCN(CCO)CCCOc1ccc2c(Nc3cc(CC(=O)Nc4cccc(F)c4)[nH]n3)ncnc2c1 | % | 100
O=c1[nH]c2ccccc2n1C1CCN(Cc2ccc(-c3nc4cc5[nH]cnc5cc4nc3-c3ccccc3)cc2)CC1 | % | 75
CCN1CCN(Cc2ccc(NC(=O)c3ccc(C)c(/C=C/c4cnc5[nH]ccc5c4OC)c3)cc2C(F)(F)F)CC1 | % | 4.2
COc1cc2ncnc(Nc3cccc(Cl)c3)c2cc1OC | % | 93
COc1ccc(N(C(=O)Oc2cc(C(=O)Nc3cccc(C(F)(F)F)c3)ccc2C)c2ccnc(Nc3ccc(N4CCN(C)CC4)cc3)n2)c(OC)c1 | % | 100
CCc1nc(-c2cccc(C)c2)c(-c2ccnc(NC(=O)c3ccccc3)c2)s1 | % | 91
N#C/C(=C1/Nc2ccccc2S1)c1ccnc(NCCc2cccnc2)n1 | % | 100
CC(=O)c1c(C)c2cnc(Nc3ccc(N4CCNCC4)cn3)nc2n(C2CCCC2)c1=O | % | 100
